MEASUREMENT_TARGET: 1-deoxy-D-xylulose 5-phosphate reductoisomerase (Escherichia coli (strain K12), UniProt P45568)
Sequence (P45568 whole entry): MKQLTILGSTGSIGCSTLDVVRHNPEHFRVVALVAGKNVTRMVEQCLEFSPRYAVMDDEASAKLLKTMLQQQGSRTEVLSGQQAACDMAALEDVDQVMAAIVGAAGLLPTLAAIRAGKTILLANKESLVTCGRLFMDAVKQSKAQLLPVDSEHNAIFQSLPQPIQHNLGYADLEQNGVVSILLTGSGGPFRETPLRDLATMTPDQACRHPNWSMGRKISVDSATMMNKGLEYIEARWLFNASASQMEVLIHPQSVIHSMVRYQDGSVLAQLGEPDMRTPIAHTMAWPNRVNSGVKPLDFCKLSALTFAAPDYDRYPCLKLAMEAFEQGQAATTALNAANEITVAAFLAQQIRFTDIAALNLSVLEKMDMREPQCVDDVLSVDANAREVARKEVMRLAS
ASSAY_SUMMARY: Inhibition Assay
CONDITION_SET: pH 8; 37 °C
So I've got a bunch of compounds here, and I need their pKi values.
One number for each entry, as −log10 of the molar value.

INSERT INTO assay_data (compound, result_type, value_measured) VALUES
  ('CC(=O)NCCCP(=O)(O)O [Phosphate analogue, 9]', 'pKi', 2.19),
  ('O=C1OC[C@@H](COP(=O)(O)O)N1O [Phosphate analogue, (s)-14]', 'pKi', 3.12);

For every record below, what is its pKi?
1. O=C1N[C@H](COP(=O)(O)O)CO1 [Phosphate analogue, (S)-21]
2. NCCCP(=O)(O)O [Phosphate analogue, 8]

Response:
2.39
2.40

These entries and their values trace back to BindingDB's records for doi:10.1002/cbic.200500061.
